Where do the numbers come from? From ChEMBL document CHEMBL1124085.

MST values for the compounds below.
test system: Mus musculus; assay: Parenteral antimalarial activity against Plasmodium vinckei in mice (Mus musculus) measured as increase in mean survival time at 15 mg/kg dose.; type: functional
Your answer should be a plain number; it is taken to be in days.

Cn1c(=O)nc2n(-c3ccc(Cl)cc3Cl)c3ccccc3nc-2c1=O    0.5
Cc1cc(Cl)ccc1-n1c2nc(=O)n(C)c(=O)c-2nc2ccccc21    1.2
Cn1c(=O)nc2n(-c3cc(Cl)ccc3Cl)c3ccccc3nc-2c1=O    0

// below: MST requested for another compound
Item Cn1c(=O)nc2n(-c3cccc(F)c3)c3ccccc3nc-2c1=O ; assay system Mus musculus; MST reported as 0.2

---

test system: Mus musculus; test: Oral antimalarial activity against Plasmodium vinckei in mice (Mus musculus) measured as increase in mean survival time at 25 mg/kg dose.; format: functional
ASSAY READOUT: MST (days)
Your answer should be a plain number; it is taken to be in days.

Cn1c(=O)nc2n(-c3ccc(Cl)c(Cl)c3)c3ccccc3nc-2c1=O    0
Cn1c(=O)nc2n(-c3cc(Cl)ccc3Cl)c3ccccc3nc-2c1=O    0
Cn1c(=O)nc2n(-c3ccc(Cl)cc3Cl)c3ccccc3nc-2c1=O    0
Cc1cc(Cl)ccc1-n1c2nc(=O)n(C)c(=O)c-2nc2ccccc21    0.5
Cn1c(=O)nc2n(-c3cc(Cl)cc(Cl)c3)c3ccccc3nc-2c1=O    3.5

Entry under test: O=c1nc2n(-c3ccc(Cl)cc3)c3ccccc3nc-2c(=O)[nH]1 . Its MST was 0

---

system: Mus musculus; assay: Oral antimalarial activity against Plasmodium vinckei in mice (Mus musculus) measured as % cured and increase in MST (days) at 25 mg/kg dose.; format: functional
ASSAY READOUT: Cured (%)
Your answer should be a plain number; it is taken to be in %.

Cn1c(=O)nc2n(-c3cccc(F)c3)c3ccccc3nc-2c1=O    40
Cn1c(=O)nc2n(-c3cc(Cl)ccc3Cl)c3ccccc3nc-2c1=O    0
Cn1c(=O)nc2n(-c3ccc(Cl)cc3Cl)c3ccccc3nc-2c1=O    0
O=c1nc2n(-c3ccc(Cl)cc3)c3ccccc3nc-2c(=O)[nH]1    0

Entry under test: Cn1c(=O)nc2n(-c3cc(Cl)cc(Cl)c3)c3ccccc3nc-2c1=O . Its Cured was 60

Entry under test: Cn1c(=O)nc2n(-c3ccc(Cl)c(Cl)c3)c3ccccc3nc-2c1=O . Its Cured was 0

Entry under test: Cc1cc(Cl)ccc1-n1c2nc(=O)n(C)c(=O)c-2nc2ccccc21 . Its Cured was 0
